System Tested: ~100 representative kinases (Homo sapiens)
Construct: Recombinant protein kinase domains with a concentration of 2 μM
Sequence (P51955 1-445): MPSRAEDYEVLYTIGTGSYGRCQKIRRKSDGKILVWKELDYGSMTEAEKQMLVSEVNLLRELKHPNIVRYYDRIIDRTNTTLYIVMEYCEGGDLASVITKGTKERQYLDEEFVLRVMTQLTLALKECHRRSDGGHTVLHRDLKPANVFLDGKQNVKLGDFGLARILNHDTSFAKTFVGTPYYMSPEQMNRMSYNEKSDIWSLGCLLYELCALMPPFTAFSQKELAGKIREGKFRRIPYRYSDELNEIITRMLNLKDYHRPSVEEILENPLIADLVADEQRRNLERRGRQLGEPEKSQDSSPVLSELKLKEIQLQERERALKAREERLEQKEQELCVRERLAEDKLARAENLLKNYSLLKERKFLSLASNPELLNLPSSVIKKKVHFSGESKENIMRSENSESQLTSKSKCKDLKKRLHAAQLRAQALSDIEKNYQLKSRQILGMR
Experiment Summary: DSF 100 kinase selectivity screen;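 also: compound tested at 20 µM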
Type: binding
Measurement Context: protein NEK2; average of three replicates
Description: Recombinant protein kinase domains with a concentration of 2 μM were mixed with a 20 μM compound solution in dimethyl sulfoxide (DMSO), 20 mM Hepes (pH 7.5), and 500 mM NaCl. SYPRO Orange (5000×, Invitrogen) was added as a fluorescence probe (1μl/ml). Subsequently, temperature-dependent protein unfolding profiles were measured using the QuantStudio 5 realtime PCR machine (Thermo Fisher Scientific, Waltham, MA, USA). […] The temperature was raised with a step rate of 3°C/min. […]
Experimental Endpoint: dTm (K)
Answer in K, number only, no unit symbol.

Compound	Number
O=C(Nc1cc(F)cc(Br)c1)C1(C(=O)Nc2cccc(-c3c[nH]c4ncnc(N5CCOCC5)c34)c2)CC1 [Compound 27]	-2.11

Could you share which dTm value was measured for COc1cc(S(C)(=O)=O)ccc1Nc1nc(N(C)C)c2c(Cl)c[nH]c2n1 [Compound 37] ?
-1.77

Return reported dTm; argument: O=C(Nc1cccc(-c2c[nH]c3ncnc(N4CCOCC4)c23)c1)C1(C(=O)Nc2ccc(F)c(Br)c2)CC1 [Compound 19]
-0.29

Consider the compound O=C(Nc1cccc(-c2c[nH]c3ncnc(N4CCOCC4)c23)c1)C1(C(=O)Nc2ccc(F)cc2F)CC1 [Compound 23] and give its measured dTm.
1.54

Need dTm, item Cc1ccc(-n2nc(C(C)(C)C)cc2NC(=O)Nc2cccc(-c3c[nH]c4nc(Cl)nc(N5CCOCC5)c34)c2)cc1 [Compound 30]
-0.71
